target-system: T1, orthogonal hCD122 receptor (hoRb), hCD122 with H133D and Y134F (human, UniProt P14784 27-550); also: reference of the scale not given here
T1 sequence: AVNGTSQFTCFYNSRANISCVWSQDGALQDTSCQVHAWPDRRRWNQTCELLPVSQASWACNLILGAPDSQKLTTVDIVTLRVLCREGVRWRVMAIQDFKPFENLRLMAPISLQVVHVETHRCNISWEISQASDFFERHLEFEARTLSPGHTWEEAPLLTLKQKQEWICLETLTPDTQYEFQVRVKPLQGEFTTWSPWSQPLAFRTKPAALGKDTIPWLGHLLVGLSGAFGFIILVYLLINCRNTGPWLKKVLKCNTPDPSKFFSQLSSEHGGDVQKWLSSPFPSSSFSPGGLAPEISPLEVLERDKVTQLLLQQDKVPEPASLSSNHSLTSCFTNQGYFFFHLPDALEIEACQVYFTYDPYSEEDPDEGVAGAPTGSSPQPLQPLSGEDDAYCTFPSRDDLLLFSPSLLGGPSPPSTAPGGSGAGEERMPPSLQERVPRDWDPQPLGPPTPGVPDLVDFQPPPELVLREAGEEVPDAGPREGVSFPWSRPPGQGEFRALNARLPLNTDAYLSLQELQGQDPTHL
procedure-text: cell-based or functional assay
metric-name: Relative Proliferation Fold Change NKL 1:10 (fold)
Field: numeric (fold). Do not append units.

For the binder SQVLIA (ligand) APTSSSTKKTQLQLSQLLVLLIAILNGINNYKNPKLTRMLTFKFYMPKKATELKHLQCLEEELKPLEEVLNLAQSKNFHLRPRDLISNINVIVLELKGSETTFMCEYADETATIVEFLNRWITFCQSIISTLT , what Relative Proliferation Fold Change NKL 1:10 is on record?
0.78

Any idea what Relative Proliferation Fold Change NKL 1:10 was measured for ΔR81, SQVLKA (ligand) APTSSSTKKTQLQLSQLLVLLKAILNGINNYKNPKLTRMLTFKFYMPKKATELKHLQCLEEELKPLEEVLNLAQSKNFHLPRDLISNINVIVLELKGSETTFMCEYADETATIVEFLNRWITFCQSIISTLT ?
4.09

Return reported Relative Proliferation Fold Change NKL 1:10; argument: SQILKA (ligand) APTSSSTKKTQLQLSQLLILLKAILNGINNYKNPKLTRMLTFKFYMPKKATELKHLQCLEEELKPLEEVLNLAQSKNFHLRPRDLISNINVIVLELKGSETTFMCEYADETATIVEFLNRWITFCQSIISTLT
3.44

Which Relative Proliferation Fold Change NKL 1:10 value belongs to L85V, SQVLKA (ligand) APTSSSTKKTQLQLSQLLVLLKAILNGINNYKNPKLTRMLTFKFYMPKKATELKHLQCLEEELKPLEEVLNLAQSKNFHLRPRDVISNINVIVLELKGSETTFMCEYADETATIVEFLNRWITFCQSIISTLT ?
3.34

Look up Relative Proliferation Fold Change NKL 1:10 for this binder: L18D, SQVLKA (ligand) APTSSSTKKTQLQLSQLDVLLKAILNGINNYKNPKLTRMLTFKFYMPKKATELKHLQCLEEELKPLEEVLNLAQSKNFHLRPRDLISNINVIVLELKGSETTFMCEYADETATIVEFLNRWITFCQSIISTLT
0.59

Field request: Relative Proliferation Fold Change NKL 1:10 | item: ΔA1, SQVLKA (ligand) PTSSSTKKTQLQLSQLLVLLKAILNGINNYKNPKLTRMLTFKFYMPKKATELKHLQCLEEELKPLEEVLNLAQSKNFHLRPRDLISNINVIVLELKGSETTFMCEYADETATIVEFLNRWITFCQSIISTLT
1.81

Looking for the measured Relative Proliferation Fold Change NKL 1:10 of T3E, SQVLKA (ligand) APESSSTKKTQLQLSQLLVLLKAILNGINNYKNPKLTRMLTFKFYMPKKATELKHLQCLEEELKPLEEVLNLAQSKNFHLRPRDLISNINVIVLELKGSETTFMCEYADETATIVEFLNRWITFCQSIISTLT , can you help?
3.86

Requested field: Relative Proliferation Fold Change NKL 1:10. Item: C125S, SQVLKA (ligand) APTSSSTKKTQLQLSQLLVLLKAILNGINNYKNPKLTRMLTFKFYMPKKATELKHLQCLEEELKPLEEVLNLAQSKNFHLRPRDLISNINVIVLELKGSETTFMCEYADETATIVEFLNRWITFSQSIISTLT
4.53

Reported Relative Proliferation Fold Change NKL 1:10, binder Q126S, SQVLKA (ligand) APTSSSTKKTQLQLSQLLVLLKAILNGINNYKNPKLTRMLTFKFYMPKKATELKHLQCLEEELKPLEEVLNLAQSKNFHLRPRDLISNINVIVLELKGSETTFMCEYADETATIVEFLNRWITFCSSIISTLT : ____
0.57

// returns reported Relative Proliferation Fold Change NKL 1:10 for input T3P, SQVLKA (ligand) APPSSSTKKTQLQLSQLLVLLKAILNGINNYKNPKLTRMLTFKFYMPKKATELKHLQCLEEELKPLEEVLNLAQSKNFHLRPRDLISNINVIVLELKGSETTFMCEYADETATIVEFLNRWITFCQSIISTLT
4.91

Could you share which Relative Proliferation Fold Change NKL 1:10 value was measured for ΔT51, SQVLKA (ligand) APTSSSTKKTQLQLSQLLVLLKAILNGINNYKNPKLTRMLTFKFYMPKKAELKHLQCLEEELKPLEEVLNLAQSKNFHLRPRDLISNINVIVLELKGSETTFMCEYADETATIVEFLNRWITFCQSIISTLT ?
0.71

Quick one: Relative Proliferation Fold Change NKL 1:10 for SQVLNA (ligand) APTSSSTKKTQLQLSQLLVLLNAILNGINNYKNPKLTRMLTFKFYMPKKATELKHLQCLEEELKPLEEVLNLAQSKNFHLRPRDLISNINVIVLELKGSETTFMCEYADETATIVEFLNRWITFCQSIISTLT ?
3

Any idea what Relative Proliferation Fold Change NKL 1:10 was measured for L18S, SQVLKA (ligand) APTSSSTKKTQLQLSQLSVLLKAILNGINNYKNPKLTRMLTFKFYMPKKATELKHLQCLEEELKPLEEVLNLAQSKNFHLRPRDLISNINVIVLELKGSETTFMCEYADETATIVEFLNRWITFCQSIISTLT ?
1.56

# Relative Proliferation Fold Change NKL 1:10 lookup, item Q74N, SQVLKA (ligand) APTSSSTKKTQLQLSQLLVLLKAILNGINNYKNPKLTRMLTFKFYMPKKATELKHLQCLEEELKPLEEVLNLANSKNFHLRPRDLISNINVIVLELKGSETTFMCEYADETATIVEFLNRWITFCQSIISTLT
3.18
